# SYSTEM UNDER TEST: Cysteinyl leukotriene receptor 1 (Homo sapiens, UniProt Q9Y271)
# Sequence (Q9Y271 whole entry): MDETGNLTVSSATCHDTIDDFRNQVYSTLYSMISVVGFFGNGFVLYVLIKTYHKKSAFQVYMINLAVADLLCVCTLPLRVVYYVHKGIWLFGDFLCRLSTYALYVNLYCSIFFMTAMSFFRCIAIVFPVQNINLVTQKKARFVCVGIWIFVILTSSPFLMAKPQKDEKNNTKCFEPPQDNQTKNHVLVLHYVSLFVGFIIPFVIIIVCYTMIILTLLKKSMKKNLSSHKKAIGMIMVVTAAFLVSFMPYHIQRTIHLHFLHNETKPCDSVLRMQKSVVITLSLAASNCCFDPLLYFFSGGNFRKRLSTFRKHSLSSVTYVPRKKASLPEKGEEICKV
# ASSAY OVERVIEW: Antagonist activity against CysLT1 receptor (unknown origin) expressed in HEK293 cells assessed as inhibition of LTD4-induced calcium mobilization pre-incubated for 10 mins before LTD4 addition by Fluo-4 AM dye based fluorimetric assay
# Format: functional, cell-based
REPORTED METRIC: IC50

| SMILES INPUT | RECORDED RESULT |
| --- | --- |
| O=C(/C=C/c1c(C(=O)O)[nH]c2cc(Cl)cc(Cl)c12)OCC1CCCCC1 | > 100 µM |
| O=C(/C=C/c1c(C(=O)O)[nH]c2cc(Cl)cc(Cl)c12)Oc1ccccc1 | > 100 µM |
| O=C(/C=C/c1c(C(=O)O)[nH]c2cc(Cl)cc(Cl)c12)OCCc1ccccc1 | > 100 µM |

---

# SYSTEM UNDER TEST: Cysteinyl leukotriene receptor 2 (Homo sapiens, UniProt Q9NS75)
# Sequence (Q9NS75 whole entry): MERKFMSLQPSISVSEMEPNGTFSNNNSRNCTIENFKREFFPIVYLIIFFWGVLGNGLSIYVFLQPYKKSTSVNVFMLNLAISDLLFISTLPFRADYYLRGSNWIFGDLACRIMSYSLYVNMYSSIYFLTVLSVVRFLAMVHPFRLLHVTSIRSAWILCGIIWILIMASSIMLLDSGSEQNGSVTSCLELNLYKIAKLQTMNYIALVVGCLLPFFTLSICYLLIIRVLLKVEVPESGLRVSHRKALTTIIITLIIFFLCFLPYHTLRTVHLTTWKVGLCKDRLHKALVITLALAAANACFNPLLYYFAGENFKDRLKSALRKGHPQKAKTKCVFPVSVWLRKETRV
# ASSAY OVERVIEW: Antagonist activity against CysLT2 receptor (unknown origin) expressed in HEK293 cells assessed as inhibition of LTD4-induced calcium mobilization pre-incubated for 10 mins before LTD4 addition by Fluo-4 AM dye based fluorimetric assay
REPORTED METRIC: IC50

| SMILES INPUT | REPORTED METRIC | RECORDED RESULT |
| --- | --- | --- |
| O=C(/C=C/c1c(C(=O)O)[nH]c2cc(Cl)cc(Cl)c12)OCCCCc1ccccc1 | IC50 | > 100 µM |
| O=C(/C=C/c1c(C(=O)O)[nH]c2cc(Cl)cc(Cl)c12)Nc1cccc(/C=C/c2ccc3ccc(Cl)cc3n2)c1 | IC50 | > 100 µM |
| O=C(/C=C/c1c(C(=O)O)[nH]c2cc(Cl)ccc12)Nc1cccc(/C=C/c2ccc3ccc(Cl)cc3n2)c1 | IC50 | 87 µM |
| O=C(/C=C/c1c[nH]c2cc(Cl)cc(Cl)c12)OCc1cccc(/C=C/c2ccc3ccc(Cl)cc3n2)c1 | IC50 | > 100 µM |
| O=C(/C=C/c1c(C(=O)O)[nH]c2cc(Cl)cc(Cl)c12)OCCCc1ccccc1 | IC50 | > 100 µM |
| O=C(/C=C/c1c(C(=O)O)[nH]c2cc(Cl)cc(Cl)c12)OCc1cccc(/C=C/c2ccc3ccc(Cl)cc3n2)c1 | IC50 | > 100 µM |
| O=C(/C=C/c1c(C(=O)O)[nH]c2cc(F)cc(F)c12)Nc1cccc(/C=C/c2ccc3ccc(Cl)cc3n2)c1 | IC50 | 76 µM |
| O=C(/C=C/c1c(C(=O)O)[nH]c2c(Cl)cccc12)Nc1cccc(/C=C/c2ccc3ccc(Cl)cc3n2)c1 | IC50 | > 100 µM |

From: ChEMBL document CHEMBL3808374
